study.target: human CPT1a (Homo sapiens)
Sequence (P50416 2-773): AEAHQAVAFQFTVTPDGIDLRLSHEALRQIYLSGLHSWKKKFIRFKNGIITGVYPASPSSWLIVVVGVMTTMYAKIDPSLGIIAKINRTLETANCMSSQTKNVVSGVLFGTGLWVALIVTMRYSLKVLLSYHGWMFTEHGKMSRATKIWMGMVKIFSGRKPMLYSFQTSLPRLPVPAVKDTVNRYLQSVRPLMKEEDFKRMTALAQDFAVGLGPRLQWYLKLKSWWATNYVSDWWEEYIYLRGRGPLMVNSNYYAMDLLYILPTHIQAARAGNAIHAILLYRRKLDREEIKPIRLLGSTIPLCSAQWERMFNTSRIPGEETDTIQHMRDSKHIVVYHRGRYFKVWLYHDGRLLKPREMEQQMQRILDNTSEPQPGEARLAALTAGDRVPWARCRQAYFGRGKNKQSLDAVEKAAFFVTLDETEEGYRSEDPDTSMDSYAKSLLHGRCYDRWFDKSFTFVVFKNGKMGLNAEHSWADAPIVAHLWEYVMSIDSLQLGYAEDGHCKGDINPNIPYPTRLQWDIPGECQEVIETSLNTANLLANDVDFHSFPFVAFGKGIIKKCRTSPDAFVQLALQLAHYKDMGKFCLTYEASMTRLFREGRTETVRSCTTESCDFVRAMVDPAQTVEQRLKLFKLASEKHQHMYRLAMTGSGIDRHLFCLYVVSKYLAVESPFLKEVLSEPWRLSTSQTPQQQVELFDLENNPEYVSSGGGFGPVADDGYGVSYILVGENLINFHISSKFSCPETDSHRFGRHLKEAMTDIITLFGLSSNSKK
protocol.text: DTNB colorimetric CoA release assay, […] nm, transfected Expi293 pellet extract
Type: biochemical
property.measured: IC50 (µM)

(a) CN(C)CCCN1c2ccccc2Sc2ccc(Cl)cc21
(b) O=C(O)[C@@]1(CCCCCCOc2ccc(Cl)cc2)CO1
// query Out of a and b , name the one with the higher IC50. // return label of chosen record
// result b
(b: 4710 µM, a: 179 µM)
